# System: Escherichia coli TOP10
# protocol.description: shrunken log2 fold change of peptide-encoding DNA abundance (4.5 h post-induction vs induction); higher = less antimicrobial activity (less host growth inhibition)
# measurement.conditions: time post-induction: 4.5 h; library: site-saturation at positions 5, 18, 19, 20
measured.quantity: shrunken log2 fold change
Number only, no unit.

-- ask Tell me the measured shrunken log2 fold change of RRIRYRPPRLPRPRPRPILWPRP , please.
-- reply -0.0119

-- ask Also check RRIRVRPPRLPRPRPRPPEVPRP
-- reply 0.0599

Alright, here's another sequence for you.
-- ask I have this sequence here, RRIRMRPPRLPRPRPRPPMVPRP , and I need its recorded shrunken log2 fold change.
-- reply 0.188

* * *

# Test system: Escherichia coli TOP10
# protocol.description: shrunken log2 fold change of peptide-encoding DNA abundance (4.5 h post-induction vs induction); higher = less antimicrobial activity (less host growth inhibition)
# measurement.conditions: time post-induction: 4.5 h; library: site-saturation at positions 5, 18, 19, 20
Use shrunken log2 fold change to assign classes; range list: small value = under -0.06, mid value = from -0.06 up to 0.2, large value = 0.2 and over

Look over these answered cases.
-- ask Note: place this sequence into its band. Item: RRIRWRPPRLPRPRPRPWIPPRP
-- reply small value

-- ask Also need RRIRRRPPRLPRPRPRPPFCPRP , thanks.
-- reply large value

-- ask Next entry: RRIRMRPPRLPRPRPRPEMHPRP
-- reply large value

-- ask Now give it for RRIRYRPPRLPRPRPRPDSAPRP too.
-- reply small value

-- ask // same read-out, input: RRIRDRPPRLPRPRPRPHHFPRP
-- reply small value

---
-- ask Class label required: RRIRRRPPRLPRPRPRPKAEPRP
-- reply mid value

-- ask # repeat for RRIRMRPPRLPRPRPRPTTRPRP
-- reply large value

-- ask Please give the result for RRIRQRPPRLPRPRPRPTTSPRP too.
-- reply mid value

-- ask Request: RRIRIRPPRLPRPRPRPWAQPRP
-- reply mid value

-- ask And what about the sequence RRIRMRPPRLPRPRPRPKCKPRP ?
-- reply large value

* * *

# Test system: Escherichia coli TOP10
# protocol.description: shrunken log2 fold change of peptide-encoding DNA abundance (4.5 h post-induction vs induction); higher = less antimicrobial activity (less host growth inhibition)
# measurement.conditions: time post-induction: 4.5 h; library: site-saturation at positions 5, 18, 19, 20
Listed sequences paired with reported shrunken log2 fold change
// no unit, no text: just the number

-- ask API: value(readout=shrunken log2 fold change, system=Escherichia coli TOP10) for record RRIRRRPPRLPRPRPRPICWPRP
-- reply 0.388

-- ask Another sequence to check: RRIRQRPPRLPRPRPRPQVLPRP
-- reply 0.00177

-- ask What do we get for RRIRMRPPRLPRPRPRPQIQPRP ?
-- reply -0.0708

-- ask Proceed to RRIRTRPPRLPRPRPRPSHDPRP
-- reply -0.459

-- ask Next entry: RRIRRRPPRLPRPRPRPVVFPRP
-- reply 0.286

Read the next record carefully.
-- ask # query: shrunken log2 fold change | item RRIRFRPPRLPRPRPRPVNGPRP | system: Escherichia coli TOP10
-- reply -0.746

* * *

# Test system: Escherichia coli TOP10;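 note: peptides expressed intracellularly from a pBAD plasmid library in pooled LB shake-flask culture, induced with 0.3% L-arabinose, DNA abundance read by NGS, three biological replicates, DESeq2 with apeglm shrinkage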
# protocol.description: shrunken log2 fold change of peptide-encoding DNA abundance (4.5 h post-induction vs induction); higher = less antimicrobial activity (less host growth inhibition)
# measurement.conditions: time post-induction: 4.5 h; library: site-saturation at positions 5, 18, 19, 20
measured.quantity: shrunken log2 fold change

-- ask Find the recorded shrunken log2 fold change belonging to RRIRCRPPRLPRPRPRPHPFPRP and report it.
-- reply -0.0728

Others:
-- ask Give its shrunken log2 fold change value. Item: RRIRCRPPRLPRPRPRPPMTPRP
-- reply 0.155

-- ask And for RRIRNRPPRLPRPRPRPPIKPRP ?
-- reply -0.279

-- ask Would you kindly repeat that for RRIRARPPRLPRPRPRPPGTPRP ?
-- reply 0.898

-- ask // next record RRIRDRPPRLPRPRPRPSLEPRP
-- reply 0.245

-- ask Next entry: RRIRERPPRLPRPRPRPDLFPRP
-- reply 0.462

-- ask Also check RRIRMRPPRLPRPRPRPLLSPRP
-- reply 0.17

-- ask Lookup RRIRYRPPRLPRPRPRPKKYPRP
-- reply -0.86

-- ask RRIRHRPPRLPRPRPRPTADPRP ?
-- reply 0.202

-- ask Moving on to the next sequence: RRIRMRPPRLPRPRPRPLTDPRP
-- reply 1.69
